# Assay protocol: Metabolic stability in rat liver microsomes (RLMs)
# Measurement conditions: rat, microsomes, Metabolic stability: RLM CL (ul/min/mg), RLMs; mean and SD, three measurements
Measurement type: microsomal CLint (µL/min/mg)
Record the value in µL/min/mg, omitting the unit from your answer.

For orientation, consider the following solved cases.
>  <Compound>
O=C1NCCSCc2cccc(n2)CSC[C@H](NC(=O)c2ccc(Cl)s2)C(=O)N[C@@H](CO)C(=O)NCc2ccc1cc2

>  <Measurement type>
microsomal CLint

>  <Recorded result>
96

$$$$
>  <Compound>
O=C1CCSCc2cccc(n2)CSCCNC(=O)C2CN(C(=O)c3ccc(Cl)s3)CCN2C(=O)[C@H](CO)N1 (stereo partly drawn)

>  <Measurement type>
microsomal CLint

>  <Recorded result>
74

$$$$

Continue with the next compound.
Param item = O=C1CC2CCN(CC2)C(=O)[C@@H](NC(=O)c2cc(F)cc(F)c2)CSCc2ccc(cc2)CSCCNC(=O)[C@H](Cc2ccccc2)N1 [peptide 1] ; retrieve measured microsomal CLint. 123

* * *

# System under test: porcine pepsin (Sus scrofa)
# Construct: 0.32 g of porcine pepsin (Sigma-Aldrich, P7125) was dissolved under gentle agitation; purchased Sigma-Aldrich P7125
# Sequence (P00791 60-385): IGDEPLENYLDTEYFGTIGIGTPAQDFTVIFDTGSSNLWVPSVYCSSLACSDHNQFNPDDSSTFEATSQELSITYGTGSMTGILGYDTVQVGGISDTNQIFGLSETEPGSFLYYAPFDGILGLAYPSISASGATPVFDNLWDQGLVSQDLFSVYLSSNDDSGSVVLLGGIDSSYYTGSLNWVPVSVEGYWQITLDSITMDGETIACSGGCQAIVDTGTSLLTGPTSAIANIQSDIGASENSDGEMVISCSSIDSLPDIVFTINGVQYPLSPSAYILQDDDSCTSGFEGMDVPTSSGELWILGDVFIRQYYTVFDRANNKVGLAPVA
# Assay protocol: Peptide stability in simulated gastric fluid (SGF)
# Type: in vitro ADME
# Measurement conditions: after 8 h vs 0 h (TIC); average of R1-R3
Measurement type: SGF stability, Residual peptide Average
// return just the number, without any unit appended

>  <Sample smiles>
O=C1C[C@H]2CCCN2C(=O)[C@H](Cc2ccccn2)NC(=O)[C@@H](NC(=O)c2ccc(Cl)s2)CSCCS(=O)(=O)CCSCCN1

>  <SGF stability, Residual peptide Average>
99.15

$$$$
>  <Sample smiles>
O=C1CCSCc2cccc(n2)CSCCNC(=O)[C@H](CO)NC(=O)[C@@H](NC(=O)c2ccc(Cl)s2)CN1

>  <SGF stability, Residual peptide Average>
97.83

$$$$

Param item = `O=C1C[C@H]2CCCN2C(=O)[C@H](Cc2ccccc2)NC(=O)[C@@H](NC(=O)c2ccc(Cl)s2)CSCc2cccc(n2)CSCCN1` ; retrieve measured SGF stability, Residual peptide Average. 92.45

* * *

# System under test: human α-thrombin (Homo sapiens, UniProt P00734)
# Assay protocol: Sub-library screen for active and permeable cyclic peptides (PAMPA plus thrombin inhibition)
# Type: biochemical
# Measurement conditions: donor sample diluted to theoretical equilibrium (1 μM in assay); crude; slopes normalized to DMSO
Measurement type: Residual thrombin activity: Equilibrated sample
// return just the number, without any unit appended

For orientation, consider the following solved cases.
>  <Sample smiles>
O=C1C[C@H]2CCCN2C(=O)[C@H](Cc2ccc(Cl)cc2)NC(=O)[C@@H](NC(=O)c2ccc(Cl)s2)CCCSCc2ccccc2CSCCN1

>  <System under test>
human α-thrombin (Homo sapiens, UniProt P00734)

>  <Recorded result>
78.6

$$$$
>  <Sample smiles>
O=C1C[C@H]2CCCN2C(=O)[C@H](Cc2ccc(Cl)cc2)NC(=O)[C@@H](NC(=O)c2ccc(Cl)s2)CSCc2cccc(c2)CSCCN1

>  <System under test>
human α-thrombin (Homo sapiens, UniProt P00734)

>  <Recorded result>
98.5

$$$$
>  <Sample smiles>
O=C1C[C@H]2CCCN2C(=O)[C@H](Cc2ccccc2)NC(=O)[C@@H](NC(=O)c2ccc(Cl)s2)CCSCc2ccc(cc2)CSCCN1

>  <System under test>
human α-thrombin (Homo sapiens, UniProt P00734)

>  <Recorded result>
59.6

$$$$
>  <Sample smiles>
Cc1cccc(C[C@@H]2NC(=O)[C@@H](NC(=O)c3ccc(Cl)s3)CSCCS(=O)(=O)CCSCCNC(=O)C[C@H]3CCCN3C2=O)c1

>  <System under test>
human α-thrombin (Homo sapiens, UniProt P00734)

>  <Recorded result>
57.2

$$$$
>  <Sample smiles>
O=C1C[C@H]2CCCN2C(=O)[C@@H](Cc2ccccc2)NC(=O)[C@@H](NC(=O)c2ccc(Cl)s2)CCCSCc2ccccc2CSCCN1

>  <System under test>
human α-thrombin (Homo sapiens, UniProt P00734)

>  <Recorded result>
87.4

$$$$

Continue with the next compound.
// lookup Residual thrombin activity: Equilibrated sample | system=human α-thrombin (Homo sapiens, UniProt P00734) | key= `O=C1CSCCC[C@H](NC(=O)c2ccc(Cl)s2)C(=O)N[C@@H](Cc2ccc(Cl)cc2)C(=O)N2CCC[C@@H]2CC(=O)NCCSC1` 93.3

All figures here come from paper PMC11062899.
